Recorded values, source ChEMBL document CHEMBL1165995.

Tested on: HUVEC
Test protocol: Antiischemic activity against hypoxia/reoxygenation-induced cell injury in HUVEC assessed as cell viability at 0.5 uM by MTT assay
Format: functional
Condition set: Homo sapiens, read-out: Activity
Property: viability at 0.5 µM (%)
Express your answer in %, writing the number without its unit.

Worked examples follow.
1) C[C@@H](CC[C@@]1(O)O[C@H]2C[C@H]3[C@@H]4CC=C5C[C@@H](O[C@@H]6O[C@H](CO)[C@@H](O)[C@H](O)[C@H]6O[C@@H]6O[C@@H](C)[C@H](O[C@@H]7O[C@@H](C)[C@H](O)[C@@H](O)[C@H]7O)[C@@H](O)[C@H]6O)C(=O)C[C@]5(C)[C@H]4CC[C@]3(C)[C@H]2[C@@H]1C)CO[C@@H]1O[C@H](CO)[C@@H](O)[C@H](O)[C@H]1O	71.7
2) C[C@@H](CC[C@@]1(O)O[C@H]2C[C@H]3[C@@H]4CC=C5C[C@@H](O[C@@H]6O[C@H](CO)[C@@H](O)[C@H](O[C@@H]7O[C@H](CO)[C@@H](O)[C@H](O)[C@H]7O)[C@H]6O[C@@H]6O[C@@H](C)[C@H](O)[C@@H](O)[C@H]6O)CC[C@]5(C)[C@H]4CC[C@]3(C)[C@H]2[C@@H]1C)CO[C@@H]1O[C@H](CO)[C@@H](O)[C@H](O)[C@H]1O	60.9
3) C[C@@H](CC[C@@]1(O)O[C@H]2C[C@H]3[C@@H]4CC=C5C[C@@H](O[C@@H]6O[C@H](CO)[C@@H](O[C@@H]7O[C@@H](C)[C@H](O)[C@@H](O)[C@H]7O)[C@H](O)[C@H]6O[C@@H]6O[C@@H](C)[C@H](O)[C@@H](O)[C@H]6O)C(=O)C[C@]5(C)[C@H]4CC[C@]3(C)[C@H]2[C@@H]1C)CO[C@@H]1O[C@H](CO)[C@@H](O)[C@H](O)[C@H]1O	65.7
4) C[C@@H](CC[C@@]1(O)O[C@H]2C[C@H]3[C@@H]4CC=C5C[C@@H](O[C@@H]6O[C@H](CO)[C@@H](O[C@@H]7O[C@@H](C)[C@H](O)[C@@H](O)[C@H]7O)[C@H](O)[C@H]6O[C@@H]6O[C@@H](C)[C@H](O)[C@@H](O)[C@H]6O)CC[C@]5(C)[C@H]4CC[C@]3(C)[C@H]2[C@@H]1C)CO[C@@H]1O[C@H](CO)[C@@H](O)[C@H](O)[C@H]1O	60.7
5) C[C@@H](CC[C@@]1(O)O[C@H]2C[C@H]3[C@@H]4CC=C5C[C@@H](O[C@@H]6O[C@H](CO)[C@@H](O[C@@H]7O[C@@H](C)[C@H](O[C@@H]8O[C@@H](C)[C@H](O)[C@@H](O)[C@H]8O)[C@@H](O)[C@H]7O)[C@H](O)[C@H]6O[C@@H]6O[C@@H](C)[C@H](O)[C@@H](O)[C@H]6O)CC[C@]5(C)[C@H]4CC[C@]3(C)[C@H]2[C@@H]1C)CO[C@@H]1O[C@H](CO)[C@@H](O)[C@H](O)[C@H]1O	64

Then there is this compound:
Sample CC1=C(CC[C@H](C)CO[C@@H]2O[C@H](CO)[C@@H](O)[C@H](O)[C@H]2O)O[C@H]2C[C@H]3[C@@H]4CC=C5C[C@@H](O[C@@H]6O[C@H](CO)[C@@H](O)[C@H](O)[C@H]6O[C@@H]6O[C@H](CO)[C@@H](O)[C@H](O)[C@H]6O[C@@H]6O[C@H](CO)[C@@H](O)[C@H](O)[C@H]6O)[C@H](O)C[C@]5(C)[C@H]4CC[C@]3(C)[C@@H]12 ; viability at 0.5 µM observed: 60.9

---

System: HUVEC
Test protocol: Antiischemic activity against hypoxia/reoxygenation-induced cell injury in HUVEC assessed as cell viability at 100 uM by MTT assay
Format: functional
Condition set: Homo sapiens, read-out: Activity
Property: viability at 100 µM (%)
Express your answer in %, writing the number without its unit.

Worked examples follow.
1. CC1=C(CC[C@H](C)CO[C@@H]2O[C@H](CO)[C@@H](O)[C@H](O)[C@H]2O)O[C@H]2C[C@H]3[C@@H]4CC=C5C[C@@H](O[C@@H]6O[C@H](CO)[C@@H](O[C@@H]7O[C@@H](C)[C@H](O)[C@@H](O)[C@H]7O)[C@H](O)[C@H]6O[C@@H]6O[C@@H](C)[C@H](O)[C@@H](O)[C@H]6O)C(=O)C[C@]5(C)[C@H]4CC[C@]3(C)[C@@H]12 [FISTULOSAPONIN A]	78.2
2. C[C@@H](CC[C@@]1(O)O[C@H]2C[C@H]3[C@@H]4CC=C5C[C@@H](O[C@@H]6O[C@H](CO)[C@@H](O[C@@H]7O[C@@H](C)[C@H](O)[C@@H](O)[C@H]7O)[C@H](O)[C@H]6O[C@@H]6O[C@@H](C)[C@H](O)[C@@H](O)[C@H]6O)CC[C@]5(C)[C@H]4CC[C@]3(C)[C@H]2[C@@H]1C)CO[C@@H]1O[C@H](CO)[C@@H](O)[C@H](O)[C@H]1O	68.6
3. C[C@@H](CC[C@@]1(O)O[C@H]2C[C@H]3[C@@H]4CC=C5C[C@@H](O[C@@H]6O[C@H](CO)[C@@H](O)[C@H](O)[C@H]6O[C@@H]6O[C@H](CO)[C@@H](O)[C@H](O)[C@H]6O[C@@H]6O[C@H](CO)[C@@H](O)[C@H](O)[C@H]6O)[C@H](O)C[C@]5(C)[C@H]4CC[C@]3(C)[C@H]2[C@@H]1C)CO[C@@H]1O[C@H](CO)[C@@H](O)[C@H](O)[C@H]1O [FISTULOSAPONIN F]	71.2
4. C[C@@H](CC[C@@]1(O)O[C@H]2C[C@H]3[C@@H]4CC=C5C[C@@H](O[C@@H]6O[C@H](CO)[C@@H](O)[C@H](O)[C@H]6O[C@@H]6O[C@H](CO)[C@@H](O)[C@H](O)[C@H]6O[C@@H]6O[C@H](CO)[C@@H](O)[C@H](O)[C@H]6O)C(=O)C[C@]5(C)[C@H]4CC[C@]3(C)[C@H]2[C@@H]1C)CO[C@@H]1O[C@H](CO)[C@@H](O)[C@H](O)[C@H]1O [FISTULOSAPONIN D]	75.6

Sample CC1=C(CC[C@H](C)CO[C@@H]2O[C@H](CO)[C@@H](O)[C@H](O)[C@H]2O)O[C@H]2C[C@H]3[C@@H]4CC=C5C[C@@H](O[C@@H]6O[C@H](CO)[C@@H](O)[C@H](O)[C@H]6O[C@@H]6O[C@H](CO)[C@@H](O)[C@H](O)[C@H]6O[C@@H]6O[C@H](CO)[C@@H](O)[C@H](O)[C@H]6O)[C@H](O)C[C@]5(C)[C@H]4CC[C@]3(C)[C@@H]12 [FISTULOSAPONIN E] ; viability at 100 µM observed: 68

---

In this section, each of the molecules is paired with its reported viability at 0.5 µM.
Test system: HUVEC
Test protocol: Antiischemic activity against hypoxia/reoxygenation-induced cell injury in HUVEC assessed as cell viability at 0.5 uM by MTT assay
Format: functional
Condition set: Homo sapiens, read-out: Activity
Express your answer in %, writing the number without its unit.

Sample CC1=C(CC[C@H](C)CO[C@@H]2O[C@H](CO)[C@@H](O)[C@H](O)[C@H]2O)O[C@H]2C[C@H]3[C@@H]4CC=C5C[C@@H](O[C@@H]6O[C@H](CO)[C@@H](O[C@@H]7O[C@@H](C)[C@H](O)[C@@H](O)[C@H]7O)[C@H](O)[C@H]6O[C@@H]6O[C@@H](C)[C@H](O)[C@@H](O)[C@H]6O)C(=O)C[C@]5(C)[C@H]4CC[C@]3(C)[C@@H]12 ; viability at 0.5 µM observed: 59.5

Sample C[C@@H](CC[C@@]1(O)O[C@H]2C[C@H]3[C@@H]4CC=C5C[C@@H](O[C@@H]6O[C@H](CO)[C@@H](O)[C@H](O)[C@H]6O[C@@H]6O[C@H](CO)[C@@H](O)[C@H](O)[C@H]6O[C@@H]6O[C@H](CO)[C@@H](O)[C@H](O)[C@H]6O)C(=O)C[C@]5(C)[C@H]4CC[C@]3(C)[C@H]2[C@@H]1C)CO[C@@H]1O[C@H](CO)[C@@H](O)[C@H](O)[C@H]1O ; viability at 0.5 µM observed: 68.9

Sample C[C@@H](CC[C@@]1(O)O[C@H]2C[C@H]3[C@@H]4CC=C5C[C@@H](O[C@@H]6O[C@H](CO)[C@@H](O)[C@H](O)[C@H]6O[C@@H]6O[C@H](CO)[C@@H](O)[C@H](O)[C@H]6O[C@@H]6O[C@H](CO)[C@@H](O)[C@H](O)[C@H]6O)[C@H](O)C[C@]5(C)[C@H]4CC[C@]3(C)[C@H]2[C@@H]1C)CO[C@@H]1O[C@H](CO)[C@@H](O)[C@H](O)[C@H]1O ; viability at 0.5 µM observed: 62.3
